B1: glmS ribozyme (parent)
chain: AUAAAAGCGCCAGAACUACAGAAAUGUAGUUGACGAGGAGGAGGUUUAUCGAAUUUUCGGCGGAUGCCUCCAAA

# Variants of: B1
# EXPERIMENT NOTES: self-cleavage kobs at 640 uM GlcN6P; higher = faster cleavage; RNA array
# CONDITION NOTES: with glucosamine-6-phosphate
Fewer inactive variants are shown than the library holds.
MEASURED ATTRIBUTE: self-cleavage kobs at 640 uM GlcN6P (s⁻¹)

mutation_label="C8G G63A C70G" measured_attribute="self-cleavage kobs at 640 uM GlcN6P" modifier=< observed=1e-05
mutation_label="C11U A39C" measured_attribute="self-cleavage kobs at 640 uM GlcN6P" modifier== observed=8.75e-05
mutation_label="A15C A36C G41U" measured_attribute="self-cleavage kobs at 640 uM GlcN6P" modifier=< observed=1e-05
mutation_label="A53G U69G" measured_attribute="self-cleavage kobs at 640 uM GlcN6P" modifier== observed=6.89e-05
mutation_label="G51U U69A" measured_attribute="self-cleavage kobs at 640 uM GlcN6P" modifier== observed=7.72e-05
mutation_label="U56A C70U" measured_attribute="self-cleavage kobs at 640 uM GlcN6P" modifier== observed=0.002
mutation_label="A6G C67G C68A" measured_attribute="self-cleavage kobs at 640 uM GlcN6P" modifier== observed=7.11e-05
mutation_label=G43U measured_attribute="self-cleavage kobs at 640 uM GlcN6P" modifier== observed=1.42e-05
mutation_label="U47A A52U" measured_attribute="self-cleavage kobs at 640 uM GlcN6P" modifier== observed=7.72e-05
mutation_label="U46A C61U" measured_attribute="self-cleavage kobs at 640 uM GlcN6P" modifier=< observed=1e-05
mutation_label="G29U C34U U46G U47G G63A" measured_attribute="self-cleavage kobs at 640 uM GlcN6P" modifier=< observed=1e-05
mutation_label="C61G C71G" measured_attribute="self-cleavage kobs at 640 uM GlcN6P" modifier== observed=7.69e-05
mutation_label="C8A A12U A39G" measured_attribute="self-cleavage kobs at 640 uM GlcN6P" modifier=< observed=1e-05
mutation_label="A14G C70U" measured_attribute="self-cleavage kobs at 640 uM GlcN6P" modifier== observed=0.0183
mutation_label="G44U U49C" measured_attribute="self-cleavage kobs at 640 uM GlcN6P" modifier=< observed=1e-05
mutation_label="A39U C67U" measured_attribute="self-cleavage kobs at 640 uM GlcN6P" modifier== observed=0.00228
mutation_label="G43A U54C U69G" measured_attribute="self-cleavage kobs at 640 uM GlcN6P" modifier=< observed=1e-05
mutation_label="C10A A52C" measured_attribute="self-cleavage kobs at 640 uM GlcN6P" modifier=< observed=1e-05
mutation_label="U47G C71U" measured_attribute="self-cleavage kobs at 640 uM GlcN6P" modifier== observed=0.001
mutation_label="C50A C70G" measured_attribute="self-cleavage kobs at 640 uM GlcN6P" modifier== observed=7.68e-05
mutation_label="A6U A12G C16U G38A U54A C68A" measured_attribute="self-cleavage kobs at 640 uM GlcN6P" modifier== observed=0.000335
mutation_label="G35C G40A G43U" measured_attribute="self-cleavage kobs at 640 uM GlcN6P" modifier=< observed=1e-05
mutation_label="G29C C67A" measured_attribute="self-cleavage kobs at 640 uM GlcN6P" modifier== observed=0.000128
mutation_label="G13C A52G C70G" measured_attribute="self-cleavage kobs at 640 uM GlcN6P" modifier== observed=0.000164
mutation_label="U46G G63A C70G" measured_attribute="self-cleavage kobs at 640 uM GlcN6P" modifier== observed=5.25e-05
mutation_label="A14G G59C" measured_attribute="self-cleavage kobs at 640 uM GlcN6P" modifier=< observed=1e-05
mutation_label="G29A A39C" measured_attribute="self-cleavage kobs at 640 uM GlcN6P" modifier== observed=0.000243
mutation_label="U55A C67A" measured_attribute="self-cleavage kobs at 640 uM GlcN6P" modifier== observed=0.00115
mutation_label="A15G C16G" measured_attribute="self-cleavage kobs at 640 uM GlcN6P" modifier== observed=0.0011
mutation_label="G40A G44U C61A" measured_attribute="self-cleavage kobs at 640 uM GlcN6P" modifier=< observed=1e-05
mutation_label="A14G U31G C50G" measured_attribute="self-cleavage kobs at 640 uM GlcN6P" modifier== observed=0.000132
mutation_label="U47C A53U" measured_attribute="self-cleavage kobs at 640 uM GlcN6P" modifier== observed=0.000671
mutation_label="A12U G13C" measured_attribute="self-cleavage kobs at 640 uM GlcN6P" modifier=< observed=1e-05
mutation_label="A6C C58G" measured_attribute="self-cleavage kobs at 640 uM GlcN6P" modifier=< observed=1e-05
mutation_label="A39U G41U" measured_attribute="self-cleavage kobs at 640 uM GlcN6P" modifier== observed=0.000138
mutation_label="A14C C68G" measured_attribute="self-cleavage kobs at 640 uM GlcN6P" modifier== observed=4.49e-05
mutation_label="C8G U54C G60A" measured_attribute="self-cleavage kobs at 640 uM GlcN6P" modifier=< observed=1e-05
mutation_label="G37A A42G C71G" measured_attribute="self-cleavage kobs at 640 uM GlcN6P" modifier== observed=8.96e-05
mutation_label="G7U U30A G63A" measured_attribute="self-cleavage kobs at 640 uM GlcN6P" modifier=< observed=1e-05
mutation_label="C8U C11U U57G C67G" measured_attribute="self-cleavage kobs at 640 uM GlcN6P" modifier== observed=7.99e-05
